Reference source: paper PMC9722229

# target desc: κ-opioid (Homo sapiens, UniProt P41145)
# Sequence (P41145 whole entry): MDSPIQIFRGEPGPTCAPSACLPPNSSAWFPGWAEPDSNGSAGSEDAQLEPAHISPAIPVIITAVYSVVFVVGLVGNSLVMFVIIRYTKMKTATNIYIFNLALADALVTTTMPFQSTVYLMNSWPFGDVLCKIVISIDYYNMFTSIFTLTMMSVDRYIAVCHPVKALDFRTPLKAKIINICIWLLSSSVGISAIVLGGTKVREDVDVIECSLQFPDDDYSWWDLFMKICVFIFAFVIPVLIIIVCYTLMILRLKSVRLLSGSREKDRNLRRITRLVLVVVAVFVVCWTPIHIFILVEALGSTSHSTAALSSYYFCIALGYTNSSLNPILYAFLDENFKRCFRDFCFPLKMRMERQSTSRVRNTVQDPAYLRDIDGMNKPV
assay endpoint: pKi
Lab note: report pKi as minus log10 of the concentration in molar units, number only.

Give its pKi value. Item: Nc1nc2ccc(CN[C@@H]3CO[C@H](C(c4ccc(F)cc4)c4ccc(F)cc4)C[C@H]3O)cc2s1 [D-578]
5.86

====

# target desc: 5HT2b (Homo sapiens)
# Sequence (P41595 whole entry): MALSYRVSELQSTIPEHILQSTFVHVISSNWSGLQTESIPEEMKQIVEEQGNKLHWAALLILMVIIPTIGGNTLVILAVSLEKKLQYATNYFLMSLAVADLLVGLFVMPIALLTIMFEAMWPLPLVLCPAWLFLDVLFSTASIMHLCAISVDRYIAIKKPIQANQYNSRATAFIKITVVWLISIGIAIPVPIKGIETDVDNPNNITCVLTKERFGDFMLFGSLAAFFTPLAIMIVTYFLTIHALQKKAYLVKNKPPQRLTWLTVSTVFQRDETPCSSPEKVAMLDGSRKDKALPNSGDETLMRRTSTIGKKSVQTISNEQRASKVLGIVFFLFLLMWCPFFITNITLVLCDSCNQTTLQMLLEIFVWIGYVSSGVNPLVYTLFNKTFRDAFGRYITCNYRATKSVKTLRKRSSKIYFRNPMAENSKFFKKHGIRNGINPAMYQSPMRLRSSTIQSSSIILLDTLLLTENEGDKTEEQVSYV
assay endpoint: pKi
Lab note: report pKi as minus log10 of the concentration in molar units, number only.

Give its pKi value. Item: Nc1nc2ccc(CN[C@@H]3CO[C@H](C(c4ccc(F)cc4)c4ccc(F)cc4)C[C@H]3O)cc2s1
6.37

====

# target desc: Beta3 (Homo sapiens, UniProt P13945)
# Sequence (P13945 whole entry): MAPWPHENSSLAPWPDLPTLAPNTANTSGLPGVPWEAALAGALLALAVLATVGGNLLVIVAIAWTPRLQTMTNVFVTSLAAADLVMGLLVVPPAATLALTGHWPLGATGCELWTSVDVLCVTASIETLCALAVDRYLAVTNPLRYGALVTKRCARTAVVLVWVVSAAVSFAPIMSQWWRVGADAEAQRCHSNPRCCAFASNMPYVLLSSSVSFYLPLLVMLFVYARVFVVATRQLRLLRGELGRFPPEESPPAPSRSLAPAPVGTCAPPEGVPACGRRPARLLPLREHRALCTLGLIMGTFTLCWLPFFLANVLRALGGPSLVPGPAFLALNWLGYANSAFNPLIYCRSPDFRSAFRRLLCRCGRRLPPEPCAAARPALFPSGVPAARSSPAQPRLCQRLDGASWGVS
assay endpoint: Ki (µM)
Give your result in µM as a bare value.

Give its Ki value. Item: Nc1nc2ccc(CN[C@@H]3CO[C@H](C(c4ccc(F)cc4)c4ccc(F)cc4)C[C@H]3O)cc2s1
2.7

====

# target desc: Alpha2C (Homo sapiens, UniProt P18825)
# Sequence (P18825 1-462): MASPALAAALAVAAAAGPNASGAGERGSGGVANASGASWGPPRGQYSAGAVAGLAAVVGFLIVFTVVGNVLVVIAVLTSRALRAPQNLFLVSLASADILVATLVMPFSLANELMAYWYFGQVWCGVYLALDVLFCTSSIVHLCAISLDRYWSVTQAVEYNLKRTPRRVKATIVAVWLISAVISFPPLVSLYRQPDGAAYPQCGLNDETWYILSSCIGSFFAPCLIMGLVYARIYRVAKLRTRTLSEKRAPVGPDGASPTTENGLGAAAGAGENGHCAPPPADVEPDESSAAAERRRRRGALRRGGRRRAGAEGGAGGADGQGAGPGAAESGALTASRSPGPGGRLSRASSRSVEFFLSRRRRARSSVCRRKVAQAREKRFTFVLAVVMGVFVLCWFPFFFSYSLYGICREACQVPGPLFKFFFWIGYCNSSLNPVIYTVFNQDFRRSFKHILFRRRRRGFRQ
assay endpoint: Ki (nM)
Give your result in nM as a bare value.

Give its Ki value. Item: Nc1nc2ccc(CN[C@@H]3CO[C@H](C(c4ccc(F)cc4)c4ccc(F)cc4)C[C@H]3O)cc2s1 [D-578]
2010

====

# target desc: D3 (Homo sapiens)
# Sequence (P35462 whole entry): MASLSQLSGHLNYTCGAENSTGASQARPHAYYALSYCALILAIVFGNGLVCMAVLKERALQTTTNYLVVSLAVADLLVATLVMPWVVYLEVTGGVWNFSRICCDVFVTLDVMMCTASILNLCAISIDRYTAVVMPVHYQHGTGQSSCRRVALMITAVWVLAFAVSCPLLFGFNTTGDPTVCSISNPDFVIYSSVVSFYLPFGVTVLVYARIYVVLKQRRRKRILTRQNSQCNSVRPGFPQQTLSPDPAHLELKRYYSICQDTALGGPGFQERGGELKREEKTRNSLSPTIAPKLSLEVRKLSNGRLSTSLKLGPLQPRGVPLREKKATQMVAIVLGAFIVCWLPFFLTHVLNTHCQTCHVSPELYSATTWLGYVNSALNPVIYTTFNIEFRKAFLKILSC
assay endpoint: pKi
Lab note: report pKi as minus log10 of the concentration in molar units, number only.

Give its pKi value. Item: Nc1nc2ccc(CN[C@@H]3CO[C@H](C(c4ccc(F)cc4)c4ccc(F)cc4)C[C@H]3O)cc2s1 [D-578]
5.58

====

# target desc: UniProt:P28221
# Sequence (P28221 whole entry): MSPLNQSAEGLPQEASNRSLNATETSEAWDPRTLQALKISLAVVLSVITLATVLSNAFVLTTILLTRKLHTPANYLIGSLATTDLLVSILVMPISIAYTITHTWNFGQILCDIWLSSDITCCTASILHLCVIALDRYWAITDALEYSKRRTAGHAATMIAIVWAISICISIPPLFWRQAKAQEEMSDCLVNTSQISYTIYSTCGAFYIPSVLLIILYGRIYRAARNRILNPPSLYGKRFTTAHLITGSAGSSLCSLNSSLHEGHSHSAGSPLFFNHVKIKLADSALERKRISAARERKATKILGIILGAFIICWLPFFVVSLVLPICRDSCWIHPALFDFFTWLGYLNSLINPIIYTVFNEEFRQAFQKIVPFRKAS
assay endpoint: pKi
Lab note: report pKi as minus log10 of the concentration in molar units, number only.

Give its pKi value. Item: Nc1nc2ccc(CN[C@@H]3CO[C@H](C(c4ccc(F)cc4)c4ccc(F)cc4)C[C@H]3O)cc2s1 [D-578]
6.15

====

# target desc: D2 (Homo sapiens)
# Sequence (P14416 whole entry): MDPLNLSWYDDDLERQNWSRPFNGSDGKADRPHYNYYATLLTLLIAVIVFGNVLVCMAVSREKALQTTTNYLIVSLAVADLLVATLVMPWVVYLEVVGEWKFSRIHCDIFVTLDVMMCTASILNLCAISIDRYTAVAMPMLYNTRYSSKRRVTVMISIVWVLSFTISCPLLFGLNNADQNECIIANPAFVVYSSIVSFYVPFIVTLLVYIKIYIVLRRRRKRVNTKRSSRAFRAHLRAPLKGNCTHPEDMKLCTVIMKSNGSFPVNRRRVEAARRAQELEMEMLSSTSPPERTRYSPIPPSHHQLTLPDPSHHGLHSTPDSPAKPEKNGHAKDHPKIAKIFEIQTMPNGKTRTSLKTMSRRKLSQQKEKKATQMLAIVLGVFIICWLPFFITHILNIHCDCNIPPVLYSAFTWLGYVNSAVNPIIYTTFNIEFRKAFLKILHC
# assay notes: NIMH PDSP receptor binding assay
assay endpoint: Ki (nM)
Give your result in nM as a bare value.

Give its Ki value. Item: Nc1nc2ccc(CN[C@@H]3CO[C@H](C(c4ccc(F)cc4)c4ccc(F)cc4)C[C@H]3O)cc2s1
773

====

# target desc: M5 (Homo sapiens)
# Sequence (P08912 whole entry): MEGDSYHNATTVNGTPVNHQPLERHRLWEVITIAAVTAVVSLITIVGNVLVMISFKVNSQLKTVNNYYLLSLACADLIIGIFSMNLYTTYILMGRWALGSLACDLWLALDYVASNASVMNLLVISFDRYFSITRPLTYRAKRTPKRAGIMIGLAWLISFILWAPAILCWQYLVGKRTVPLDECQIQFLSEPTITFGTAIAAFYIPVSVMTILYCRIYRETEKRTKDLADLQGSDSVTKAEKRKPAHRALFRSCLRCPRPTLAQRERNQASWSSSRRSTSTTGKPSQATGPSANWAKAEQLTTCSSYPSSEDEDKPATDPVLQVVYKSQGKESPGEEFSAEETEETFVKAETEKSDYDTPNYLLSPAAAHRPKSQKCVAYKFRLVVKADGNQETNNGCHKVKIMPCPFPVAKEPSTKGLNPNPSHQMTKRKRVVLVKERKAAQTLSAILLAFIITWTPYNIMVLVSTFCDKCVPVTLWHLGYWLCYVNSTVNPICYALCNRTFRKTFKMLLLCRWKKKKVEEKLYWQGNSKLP
pKi: −log10 of the molar value.
assay endpoint: pKi

Reported pKi for M5 (Homo sapiens), given Nc1nc2ccc(CN[C@@H]3CO[C@H](C(c4ccc(F)cc4)c4ccc(F)cc4)C[C@H]3O)cc2s1 ?
< 5.00

====

# target desc: Oxytocin (Homo sapiens, UniProt P30559)
assay endpoint: Ki

Reported Ki for Oxytocin (Homo sapiens, UniProt P30559), given Nc1nc2ccc(CN[C@@H]3CO[C@H](C(c4ccc(F)cc4)c4ccc(F)cc4)C[C@H]3O)cc2s1 ?
> 10 µM

====

# target desc: cloned human SERT (Homo sapiens, UniProt P31645)
# Sequence (P31645 whole entry): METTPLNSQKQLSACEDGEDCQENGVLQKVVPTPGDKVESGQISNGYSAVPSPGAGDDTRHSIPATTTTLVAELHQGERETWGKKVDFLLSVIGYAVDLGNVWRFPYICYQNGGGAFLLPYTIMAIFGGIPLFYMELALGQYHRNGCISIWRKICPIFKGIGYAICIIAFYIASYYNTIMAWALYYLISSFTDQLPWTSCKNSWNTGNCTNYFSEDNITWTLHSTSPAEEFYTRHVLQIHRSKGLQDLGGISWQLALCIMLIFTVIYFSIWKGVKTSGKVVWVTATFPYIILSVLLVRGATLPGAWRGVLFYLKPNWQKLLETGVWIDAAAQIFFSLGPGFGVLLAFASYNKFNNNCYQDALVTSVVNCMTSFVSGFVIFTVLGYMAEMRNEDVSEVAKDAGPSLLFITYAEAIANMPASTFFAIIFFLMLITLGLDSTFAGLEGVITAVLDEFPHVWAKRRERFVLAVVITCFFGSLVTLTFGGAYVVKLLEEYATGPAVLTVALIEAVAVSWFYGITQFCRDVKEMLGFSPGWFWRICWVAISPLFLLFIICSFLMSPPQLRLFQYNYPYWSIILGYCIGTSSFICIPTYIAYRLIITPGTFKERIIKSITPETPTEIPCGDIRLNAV
assay endpoint: Ki (nM)
Give your result in nM as a bare value.

Give its Ki value. Item: Nc1nc2ccc(CN[C@@H]3CO[C@H](C(c4ccc(F)cc4)c4ccc(F)cc4)C[C@H]3O)cc2s1
20.6

====

# target desc: H2 (Homo sapiens, UniProt P25021)
# Sequence (P25021 whole entry): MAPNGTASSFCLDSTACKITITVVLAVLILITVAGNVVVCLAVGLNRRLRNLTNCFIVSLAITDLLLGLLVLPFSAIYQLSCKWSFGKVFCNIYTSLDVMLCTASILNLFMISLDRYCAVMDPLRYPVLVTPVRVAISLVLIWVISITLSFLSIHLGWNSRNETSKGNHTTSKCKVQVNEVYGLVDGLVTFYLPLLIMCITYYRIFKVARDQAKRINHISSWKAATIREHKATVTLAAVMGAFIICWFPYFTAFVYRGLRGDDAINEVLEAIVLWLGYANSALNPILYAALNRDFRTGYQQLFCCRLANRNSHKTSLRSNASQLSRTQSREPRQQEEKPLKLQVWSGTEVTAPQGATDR
# assay notes: NIMH PDSP receptor binding assay
assay endpoint: Ki (nM)
Give your result in nM as a bare value.

Give its Ki value. Item: Nc1nc2ccc(CN[C@@H]3CO[C@H](C(c4ccc(F)cc4)c4ccc(F)cc4)C[C@H]3O)cc2s1
42

====

# target desc: SERT (Rattus norvegicus)
# Sequence (P31652 whole entry): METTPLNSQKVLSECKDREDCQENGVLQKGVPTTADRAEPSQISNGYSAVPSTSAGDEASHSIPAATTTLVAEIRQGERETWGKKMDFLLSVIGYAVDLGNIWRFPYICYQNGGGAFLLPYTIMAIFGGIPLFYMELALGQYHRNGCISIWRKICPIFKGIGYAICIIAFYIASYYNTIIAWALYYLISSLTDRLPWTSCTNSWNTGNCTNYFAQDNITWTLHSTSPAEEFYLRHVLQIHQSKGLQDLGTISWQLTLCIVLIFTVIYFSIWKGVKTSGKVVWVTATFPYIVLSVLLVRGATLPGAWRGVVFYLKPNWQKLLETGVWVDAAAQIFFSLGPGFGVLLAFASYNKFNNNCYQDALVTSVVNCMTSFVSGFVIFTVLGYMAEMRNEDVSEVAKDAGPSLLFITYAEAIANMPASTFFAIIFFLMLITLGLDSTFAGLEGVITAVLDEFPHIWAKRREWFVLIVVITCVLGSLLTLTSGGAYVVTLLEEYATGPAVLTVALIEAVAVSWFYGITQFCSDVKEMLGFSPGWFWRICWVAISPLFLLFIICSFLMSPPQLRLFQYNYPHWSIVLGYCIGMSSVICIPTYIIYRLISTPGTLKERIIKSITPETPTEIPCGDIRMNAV
# assay notes: Inhibition of [3H]5-HT uptake in rat cerebral cortex synaptosomes
# Type: biochemical
assay endpoint: Ki (µM)
Give your result in µM as a bare value.

Give its Ki value. Item: Nc1nc2ccc(CN[C@@H]3CO[C@H](C(c4ccc(F)cc4)c4ccc(F)cc4)C[C@H]3O)cc2s1
0.0162

====

# target desc: Beta2 (Homo sapiens, UniProt P07550)
pKi: −log10 of the molar value.
assay endpoint: pKi

Give its pKi value. Item: Nc1nc2ccc(CN[C@@H]3CO[C@H](C(c4ccc(F)cc4)c4ccc(F)cc4)C[C@H]3O)cc2s1 [D-578]
< 5.00
